FYI, the data here is from patent US20210095028A1.

Molecular target: T1, human TIGIT over-expressed on cells (human, UniProt Q495A1 22-244)
T1 construct: also called CHO-K1/human TIGIT cells; CHO cells expressing human TIGIT
T1 sequence: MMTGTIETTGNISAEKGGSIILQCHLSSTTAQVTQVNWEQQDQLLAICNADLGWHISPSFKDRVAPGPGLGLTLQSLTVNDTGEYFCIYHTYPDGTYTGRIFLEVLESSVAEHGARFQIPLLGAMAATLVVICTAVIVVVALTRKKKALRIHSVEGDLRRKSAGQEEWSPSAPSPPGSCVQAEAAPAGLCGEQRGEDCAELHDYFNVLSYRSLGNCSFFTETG
Assay: competition FACS, CHO cells expressing human TIGIT; competitor PVR recombinant protein
measurement.type: Top (best-fit)
Keep the answer to the number alone.

Top (best-fit) recorded for this binder, 121C2F10B5 (antibody, V domains shown, Mouse monoclonal antibody; also called mouse anti-human TIGIT monoclonal antibody 121C2F10B5) VH: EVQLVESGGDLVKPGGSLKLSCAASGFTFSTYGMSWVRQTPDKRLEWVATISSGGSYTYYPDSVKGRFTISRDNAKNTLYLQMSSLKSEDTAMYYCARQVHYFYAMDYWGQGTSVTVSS VL: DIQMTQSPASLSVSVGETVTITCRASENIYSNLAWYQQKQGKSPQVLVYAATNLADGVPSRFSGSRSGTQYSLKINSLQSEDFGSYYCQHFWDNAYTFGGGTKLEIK , is 68.8

New cases:
Top (best-fit) recorded for this binder, 128E3G7F5 (antibody, V domains shown, Mouse monoclonal antibody; also called mouse anti-human TIGIT monoclonal antibody 128E3G7F5) VH: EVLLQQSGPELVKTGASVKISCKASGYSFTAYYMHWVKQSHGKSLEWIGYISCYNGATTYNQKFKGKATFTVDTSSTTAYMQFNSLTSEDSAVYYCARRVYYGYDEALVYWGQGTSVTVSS VL: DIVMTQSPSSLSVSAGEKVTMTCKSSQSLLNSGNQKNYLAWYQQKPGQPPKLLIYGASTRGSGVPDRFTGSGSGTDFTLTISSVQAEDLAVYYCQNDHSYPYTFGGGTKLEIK , is 69.7

Top (best-fit) recorded for this binder, 83G6H11C12 (antibody, V domains shown, Mouse monoclonal antibody; also called mouse anti-human TIGIT monoclonal antibody 83G6H11C12) VH: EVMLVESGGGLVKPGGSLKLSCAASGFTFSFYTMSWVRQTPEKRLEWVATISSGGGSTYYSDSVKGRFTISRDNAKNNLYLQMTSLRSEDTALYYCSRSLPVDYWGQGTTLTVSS VL: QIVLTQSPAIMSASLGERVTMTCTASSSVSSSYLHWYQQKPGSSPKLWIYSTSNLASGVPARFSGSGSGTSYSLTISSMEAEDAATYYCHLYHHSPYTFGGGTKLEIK , is 70.2
